B1: Tesmin, residues 368 to 403; numbered along this chain, Q9Y4I5 (parent)
chain: KGCNCRRSGCLKNYCECYEAQIMCSSICKCIGCKNY

variants of: B1; assay: abundance fitness (aPCA) (normalised: wild type 0, dead -1); higher = more abundant; growth selection in yeast, the domain comes from the species named; conditions: Homo sapiens
Entries get a class label from measured abundance fitness. See ranges: bottom (below -0.3), middle (-0.3 to below -0.01), top (-0.01 or more)

Solved cases below.
I27D: top
I27P: top

Here is the next item to consider.
Which abundance fitness category applies to C3D here?
middle

Just for reference, the Human Domainome abundance scans (Beltran et al. 2025) is where these values come from.
